What TGI was measured for each of the following?
Tested on: SF-539 CNS
run description: NCI tumour cell line growth inhibition, 48 h
Answers are plain numbers, in µM.

| compound | tgt | readout | value units | data value |
| --- | --- | --- | --- | --- |
| Cc1[nH]n(C(=O)c2ccccc2O)c(=O)c1/C=C1\C(=O)C=Cc2ccccc21 | SF-539 CNS | TGI | µM | 3.35 |
| Cc1c2cc[n+](C)cc2c(C)c2c1[nH]c1ccc(O)cc12 | SF-539 CNS | TGI | µM | 75.2 |
| CCCCc1cc2c(cc1O)CCC1C2CC[C@@]2(C)C1CC[C@@H]2O (stereo not given in full) | SF-539 CNS | TGI | µM | 59.3 |
| O=[N+]([O-])c1ccccc1S(=O)(=O)N1CCCc2cc(Cl)ccc21 | SF-539 CNS | TGI | µM | 97.2 |

// input: 2 compounds below; output: TGI for each
1. O=C1/C(=C/c2ccc(O)cc2)CCC1CNc1ccc(Cl)cc1 (stereo not given)
2. CCOc1ccc2c(c1)/C(=C\C=C\C1CC(C)C3CC(OCC)CCC3N1CC)CC(C)N2CC (stereo not given)

[15.5, 2.68]
